Hey, just so you know, these numbers are from paper PMC12302228.

- Test system: M21
- assay_text: Antiproliferative activity, SRB assay
- Format: cell-based, human
- protocol_conditions: read-out: IC50 M21; 48 h of treatment; mean ± SEM
reported_property: pIC50
Answers are plain numbers, as −log10 of the molar value.

Below are worked cases with known answers.
CC(C)c1ncccc1OS(=O)(=O)c1ccc(NC(=O)NCCCl)cc1 [Compound 11]
4.70
CCNC(=O)Nc1ccc(S(=O)(=O)Oc2cccnc2C(C)C)cc1 [Compound 3]
5.15
CCNC(=O)Nc1ccc(S(=O)(=O)Oc2cnccc2Br)cc1.Cl [Compound 30]
4.36
CCCNC(=O)Nc1ccc(S(=O)(=O)Oc2cnccc2C)cc1 [Compound 17]
4.62
CCCNC(=O)Nc1ccc(S(=O)(=O)Oc2cnccc2Br)cc1.Cl [Compound 33]
4.40

Working through the 3 compounds below one at a time, give pIC50 for each.
1. CCNC(=O)Nc1ccc(S(=O)(=O)Oc2cccnc2I)cc1 [Compound 2]
2. CCNC(=O)Nc1ccc(S(=O)(=O)Oc2cccnc2Br)cc1.Cl [Compound 19]
3. Cl.O=C(NCCCl)Nc1ccc(S(=O)(=O)Oc2cnccc2I)cc1 [Compound 36]

[A]
1. 4.89
2. 4.57
3. 5.46

* * *

- Test system: THP-1
- assay_text: Antiproliferative activity, MTT assay
- Format: cell-based, human
- protocol_conditions: read-out: IC50 THP-1; 48 h of treatment; mean ± SEM
Friendly reminder: IC50 below 3000 nM is Criterion met, at or above is Criterion not met.

Illustrative cases are given below, each with its answer.
Cl.O=C(NCCCl)Nc1ccc(S(=O)(=O)Oc2cccnc2I)cc1
Criterion met
CCNC(=O)Nc1ccc(S(=O)(=O)Oc2cnccc2I)cc1.Cl
Criterion met
CCNC(=O)Nc1ccc(S(=O)(=O)Oc2cnccc2C)cc1.Cl
Criterion met
Cl.O=C(NCCCl)Nc1ccc(S(=O)(=O)Oc2cccnc2Br)cc1
Criterion not met

[Q] Report whether reported IC50 is lower than 3000 nM (strictly) for `CCCNC(=O)Nc1ccc(S(=O)(=O)Oc2cccnc2I)cc1`
[A] Criterion met

[Q] Report whether reported IC50 is lower than 3000 nM (strictly) for `CCCNC(=O)Nc1ccc(S(=O)(=O)Oc2cnccc2C)cc1.Cl`
[A] Criterion not met

[Q] Report whether reported IC50 is lower than 3000 nM (strictly) for `O=C(NCCCl)Nc1ccc(S(=O)(=O)Oc2cccnc2Br)cc1`
[A] Criterion met

[Q] Report whether reported IC50 is lower than 3000 nM (strictly) for `CC(C)c1ncccc1OS(=O)(=O)c1ccc(NC(=O)NCCCl)cc1.Cl`
[A] Criterion met

[Q] Report whether reported IC50 is lower than 3000 nM (strictly) for `CCNC(=O)Nc1ccc(S(=O)(=O)Oc2cccnc2I)cc1.Cl`
[A] Criterion met

* * *

Assignment: determine reported microsomal CLint at 4 µM for the given compounds.
- assay_text: Metabolic stability in liver microsomes
- Format: in vitro ADME, mouse
- protocol_conditions: mouse, liver microsomes, pH 7.4
Numbers only, in µL/min/mg.

CCNC(=O)Nc1ccc(S(=O)(=O)Oc2cccnc2I)cc1.Cl [Compound 20]
18

Shift focus to the following entry.
[Q] For CCNC(=O)Nc1ccc(S(=O)(=O)Oc2cccnc2C(C)C)cc1.Cl [Compound 21] , what is its reported microsomal CLint at 4 µM?
[A] 25

* * *

- assay_text: physchem
- protocol_conditions: ultrapure water, 37 °C, kinetic from dmso stock
Assignment: determine reported log10(solubility at 24 h) for the given compounds.
A difference of one corresponds to tenfold solubility at 24 h; all values are log10 with solubility at 24 h in µg/mL.

Below are worked cases with known answers.
CCCNC(=O)Nc1ccc(S(=O)(=O)Oc2cccnc2I)cc1.Cl
2.08
CCNC(=O)Nc1ccc(S(=O)(=O)Oc2cccnc2C)cc1
1.74
CCCNC(=O)Nc1ccc(S(=O)(=O)Oc2cccnc2I)cc1
1.36
CCCNC(=O)Nc1ccc(S(=O)(=O)Oc2cccnc2C)cc1
1.64
CCCNC(=O)Nc1ccc(S(=O)(=O)Oc2cnccc2Br)cc1.Cl
2.09
CCCNC(=O)Nc1ccc(S(=O)(=O)Oc2cccnc2Br)cc1
0.90
CCCNC(=O)Nc1ccc(S(=O)(=O)Oc2cnccc2C)cc1.Cl
2.14
CCNC(=O)Nc1ccc(S(=O)(=O)Oc2cccnc2C(C)C)cc1.Cl
2.27

Working through the 6 compounds below one at a time, give log10(solubility at 24 h) for each.
1. CCNC(=O)Nc1ccc(S(=O)(=O)Oc2cnccc2C)cc1.Cl
2. CCCNC(=O)Nc1ccc(S(=O)(=O)Oc2cnccc2C)cc1
3. CC(C)c1ncccc1OS(=O)(=O)c1ccc(NC(=O)NCCCl)cc1.Cl
4. CCNC(=O)Nc1ccc(S(=O)(=O)Oc2cnccc2Br)cc1
5. CCCNC(=O)Nc1ccc(S(=O)(=O)Oc2cnccc2Br)cc1
6. CCNC(=O)Nc1ccc(S(=O)(=O)Oc2cnccc2I)cc1

[A]
[1.99, 1.72, 2.10, 1.81, 1.54, 1.80]

Working through the 4 compounds below one at a time, give log10(solubility at 24 h) for each.
1. CCNC(=O)Nc1ccc(S(=O)(=O)Oc2cccnc2Br)cc1.Cl
2. CCCNC(=O)Nc1ccc(S(=O)(=O)Oc2cccnc2C)cc1.Cl
3. Cl.O=C(NCCCl)Nc1ccc(S(=O)(=O)Oc2cccnc2Br)cc1
4. CCCNC(=O)Nc1ccc(S(=O)(=O)Oc2cnccc2I)cc1

[A]
1. 2.24
2. 2.18
3. 2.28
4. 1.72

[Q] For `O=C(NCCCl)Nc1ccc(S(=O)(=O)Oc2cccnc2I)cc1` , what is its reported log10(solubility at 24 h)?
[A] 0.64

* * *

- Tested on: THP-1
- assay_text: Antiproliferative activity, MTT assay
- Assay type: cell-based, human
- protocol_conditions: Homo sapiens, THP-1, 48 h, read-out: IC50 THP-1, 48 h of treatment; mean ± SEM
Assignment: determine reported IC50 for the given compounds.

Below are worked cases with known answers.
CCNC(=O)Nc1ccc(S(=O)(=O)Oc2cnccc2Br)cc1
4 µM
O=C(NCCCl)Nc1ccc(S(=O)(=O)Oc2cccnc2I)cc1
1 µM
Cc1c(-c2ccc(-c3ccccc3F)cc2)nc2ccc(F)cc2c1C(=O)O [Brequinar, reference compound]
0.17 µM
CCCNC(=O)Nc1ccc(S(=O)(=O)Oc2cccnc2Br)cc1.Cl
10 µM
CCNC(=O)Nc1ccc(S(=O)(=O)Oc2cnccc2I)cc1
1.8 µM
CC(C)c1ncccc1OS(=O)(=O)c1ccc(NC(=O)NCCCl)cc1
2.3 µM
CCCNC(=O)Nc1ccc(S(=O)(=O)Oc2cnccc2C)cc1
7.3 µM
CCCNC(=O)Nc1ccc(S(=O)(=O)Oc2cccnc2C)cc1
3.5 µM

Working through the 7 compounds below one at a time, give IC50 for each.
1. CCNC(=O)Nc1ccc(S(=O)(=O)Oc2cccnc2Br)cc1.Cl
2. CCCNC(=O)Nc1ccc(S(=O)(=O)Oc2cnccc2Br)cc1
3. CCNC(=O)Nc1ccc(S(=O)(=O)Oc2cccnc2C)cc1.Cl
4. CCCNC(=O)Nc1ccc(S(=O)(=O)Oc2cnccc2I)cc1
5. CCCNC(=O)Nc1ccc(S(=O)(=O)Oc2cccnc2C(C)C)cc1
6. O=C(NCCCl)Nc1ccc(S(=O)(=O)Oc2cnccc2I)cc1
7. CCCNC(=O)Nc1ccc(S(=O)(=O)Oc2cccnc2I)cc1.Cl

[A]
1: 7 µM; 2: 6 µM; 3: 5 µM; 4: 1.5 µM; 5: 2.6 µM; 6: 1.2 µM; 7: 3.9 µM

* * *

Quick record: IC50, human DHODH (Homo sapiens).
Express your answer as a number followed by its unit.

CCNC(=O)Nc1ccc(S(=O)(=O)Oc2cccnc2I)cc1.Cl [Compound 20]
31 nM

Shift focus to the following entry.
[Q] Param readout = IC50; param system = human DHODH (Homo sapiens); param query = CCNC(=O)Nc1ccc(S(=O)(=O)Oc2cccnc2C(C)C)cc1.Cl [Compound 21] ; response: value
Sequence (Q02127 whole entry): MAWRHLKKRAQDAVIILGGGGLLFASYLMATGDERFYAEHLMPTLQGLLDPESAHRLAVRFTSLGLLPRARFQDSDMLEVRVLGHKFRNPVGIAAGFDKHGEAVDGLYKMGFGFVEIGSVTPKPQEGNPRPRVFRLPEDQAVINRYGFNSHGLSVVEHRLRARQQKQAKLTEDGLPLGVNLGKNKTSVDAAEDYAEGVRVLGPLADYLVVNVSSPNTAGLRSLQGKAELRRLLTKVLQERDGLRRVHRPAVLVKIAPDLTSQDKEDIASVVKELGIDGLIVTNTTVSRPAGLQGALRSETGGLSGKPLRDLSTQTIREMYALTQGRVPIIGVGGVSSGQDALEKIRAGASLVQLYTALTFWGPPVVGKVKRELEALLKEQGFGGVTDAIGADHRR
[A] 12 nM

* * *

- assay_text: physchem
- protocol_conditions: ultrapure water, 37 °C, kinetic from dmso stock
Dear colleague, classification is by solubility at 24 h, with ranges listed here: low range: < 0.04 mg/mL; mid range: ≥ 0.04 mg/mL and < 0.1 mg/mL; high range: ≥ 0.1 mg/mL

O=C(NCCCl)Nc1ccc(S(=O)(=O)Oc2cccnc2Br)cc1
mid range

[Q] Form: Item = `CCCNC(=O)Nc1ccc(S(=O)(=O)Oc2cnccc2I)cc1.Cl` ; Class = ?
[A] high range

[Q] Form: Item = `CCCNC(=O)Nc1ccc(S(=O)(=O)Oc2cccnc2C(C)C)cc1` ; Class = ?
[A] low range

[Q] Form: Item = `CCNC(=O)Nc1ccc(S(=O)(=O)Oc2cccnc2I)cc1.Cl` ; Class = ?
[A] high range

[Q] Form: Item = `CCCNC(=O)Nc1ccc(S(=O)(=O)Oc2cccnc2Br)cc1.Cl` ; Class = ?
[A] mid range

[Q] Form: Item = `CCNC(=O)Nc1ccc(S(=O)(=O)Oc2cnccc2C)cc1` ; Class = ?
[A] mid range

[Q] Form: Item = `Cl.O=C(NCCCl)Nc1ccc(S(=O)(=O)Oc2cccnc2I)cc1` ; Class = ?
[A] low range

[Q] Form: Item = `CCNC(=O)Nc1ccc(S(=O)(=O)Oc2cccnc2C)cc1.Cl` ; Class = ?
[A] high range

[Q] Form: Item = `O=C(NCCCl)Nc1ccc(S(=O)(=O)Oc2cnccc2I)cc1` ; Class = ?
[A] low range
